tested on: biotinyl-Ile-oxazolone; assay: self-aminoacylation, catalytic enhancement (BIO) (fold over background); higher = more active; k-Seq, kA / k0A0; sequences stand for … in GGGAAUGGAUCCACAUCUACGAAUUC…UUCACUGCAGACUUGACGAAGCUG
Fewer inactive variants are shown than the library holds.
Each entry falls in a class defined on self-aminoacylation; the bands are class A: < 0.7; class B: ≥ 0.7 and < 3; class C: ≥ 3

# sequence text, measured target, assigned class
rows = [
    ("AAGUUUGCUGCUAGUCGCAAG [Fam3.1 aminoacylation ribozyme variant]", "biotinyl-Ile-oxazolone", "class B"),
    ("CUUCAGCUAGGUCAUCGGGUG [Fam2.2 aminoacylation ribozyme variant]", "biotinyl-Ile-oxazolone", "class B"),
    ("AUUCCCCUUGUCAUCGAGUGA [Fam2.1 aminoacylation ribozyme variant]", "biotinyl-Ile-oxazolone", "class C"),
    ("ACUACCCUGGUGAUCGAGUGA [Fam2.1 aminoacylation ribozyme variant]", "biotinyl-Ile-oxazolone", "class C"),
    ("CCACACUUCAAGCAAUAGGAC [Fam1B.1 aminoacylation ribozyme variant]", "biotinyl-Ile-oxazolone", "class A"),
    ("CUAAUGCAAACAAUCGGUCUG [Fam1A.1 aminoacylation ribozyme variant]", "biotinyl-Ile-oxazolone", "class A"),
]

-- ask Which class is correct for the following sequence? CUAAUACAAACAAUCGGUCUG [Fam1A.1 aminoacylation ribozyme variant]
-- reply class A

-- ask Exam item: assign AAGUUUGGUAAUCGUCGCAAG [Fam3.1 aminoacylation ribozyme variant] to the correct category.
-- reply class B

====

test system: biotinyl-Trp-oxazolone; assay: self-aminoacylation, catalytic enhancement (BWO) (fold over background); higher = more active; k-Seq, kA / k0A0; sequences stand for … in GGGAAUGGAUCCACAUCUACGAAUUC…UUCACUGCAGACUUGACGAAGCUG
This sample holds only a part of the variants without activity.
self-aminoacylation of 5 or higher: 1.0. Under 5: 0.0.

-- ask Entry AUUACACUGGUCAUCUAGUGA [Fam2.1 aminoacylation ribozyme variant] : is its self-aminoacylation no less than 5?
-- reply 1.0

-- ask Does AUUCACCUAGGUCAGCCGGUG [Fam2.2 aminoacylation ribozyme variant] have a reported self-aminoacylation of at least 5?
-- reply 1.0

-- ask Does UUUACCCUGGUCAACGAGUGA [Fam2.1 aminoacylation ribozyme variant] have a reported self-aminoacylation of at least 5?
-- reply 1.0

-- ask Given the entry AAGUUUGCUACUAGUCGCCAG [Fam3.1 aminoacylation ribozyme variant] , answer whether its self-aminoacylation meets or surpasses 5.
-- reply 0.0

-- ask Could you please find out whether CCACACUGCAAGCACUCGGUC [Fam1B.1 aminoacylation ribozyme variant] has self-aminoacylation that meets 5 or exceeds it?
-- reply 0.0

====

Each entry below carries its recorded self-aminoacylation.
test system: biotinyl-Trp-oxazolone; assay: self-aminoacylation, catalytic enhancement (BWO) (fold over background); higher = more active; k-Seq, kA / k0A0; sequences stand for … in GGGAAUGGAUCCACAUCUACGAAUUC…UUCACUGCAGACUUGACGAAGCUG
Fewer inactive variants are shown than the library holds.
Returns: the value as a bare number; no unit string appended.

# sequence text, self-aminoacylation
rows = [
    ("AUUCACCUAAGCCAUCGGGUG [Fam2.2 aminoacylation ribozyme variant]", 3.01),
    ("CCACACGUCAAGCCAUCGGUC [Fam1B.1 aminoacylation ribozyme variant]", 1.21),
    ("AAGUUUGCGAAGAGUCGCAAG [Fam3.1 aminoacylation ribozyme variant]", 1),
]

-- ask So what does the record say about self-aminoacylation for CUACUUCAAACAAUAGGUCUC [Fam1A.1 aminoacylation ribozyme variant] ?
-- reply 0.459

-- ask Can you look up the measured self-aminoacylation of AAGUUUGCUAAUAGCCGCAUG [Fam3.1 aminoacylation ribozyme variant] for me?
-- reply 1.54

====

tested on: biotinyl-Met-oxazolone; assay: self-aminoacylation, catalytic enhancement (BMO) (fold over background); higher = more active; k-Seq, kA / k0A0; sequences stand for … in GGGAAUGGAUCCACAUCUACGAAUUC…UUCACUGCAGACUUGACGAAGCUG
Fewer inactive variants are shown than the library holds.
Cut-off 5 on self-aminoacylation, inclusive. At or above means yes (1); below means no (0).

-- ask API: above_or_equal(metric=self-aminoacylation, cutoff=5) for item AUUACCCAUGUCAUCGAGUGA [Fam2.1 aminoacylation ribozyme variant]
-- reply yes (1)

-- ask Reported self-aminoacylation at or above 5? AUUCACCUGGGUCAUGGGGUG [Fam2.2 aminoacylation ribozyme variant]
-- reply yes (1)

-- ask Answer whether self-aminoacylation of CCACACUUGAGGCAAUCGGUC [Fam1B.1 aminoacylation ribozyme variant] is greater than or equal to 5.
-- reply no (0)

-- ask Identify whether the reported self-aminoacylation of the following sequence is 5 or greater: CCACAUUUCAAGUAAUCGGUC [Fam1B.1 aminoacylation ribozyme variant]
-- reply no (0)

-- ask Confirm if self-aminoacylation reported for the sequence CUACUUCAAAGUAUCGGUCUG [Fam1A.1 aminoacylation ribozyme variant] is 5 or above.
-- reply no (0)

-- ask Is self-aminoacylation for CUACUUGUAACAAUCGGUCUG [Fam1A.1 aminoacylation ribozyme variant] at or above 5?
-- reply no (0)

-- ask Threshold query (self-aminoacylation >= 5) on AUUCACGUAGGUCAACGGGUG [Fam2.2 aminoacylation ribozyme variant]
-- reply no (0)

-- ask Kindly determine if self-aminoacylation recorded for AUUCGCCUAGGUCAUCGAGUG [Fam2.2 aminoacylation ribozyme variant] is above or exactly 5.
-- reply yes (1)

====

test system: biotinyl-Phe-oxazolone; experiment: self-aminoacylation, catalytic enhancement (BFO) (fold over background); higher = more active; k-Seq, kA / k0A0; sequences stand for … in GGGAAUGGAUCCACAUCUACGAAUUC…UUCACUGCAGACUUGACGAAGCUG
This sample holds only a part of the variants without activity.
quantity kind: self-aminoacylation
Give the figure only, with no unit attached.

Some entries whose results are on file:
# sequence text, quantity kind, data value
measured = [
    ("CCACUUCAGACAAUCGGUCUG [Fam1A.1 aminoacylation ribozyme variant]", "self-aminoacylation", 1.67),
    ("AAGUUUGCUAAUAGUCGCGAC [Fam3.1 aminoacylation ribozyme variant]", "self-aminoacylation", 1.05),
    ("CUUCACCUAGGUCAUCAGGUG [Fam2.2 aminoacylation ribozyme variant]", "self-aminoacylation", 1.47),
    ("GUACUUCAAACAAUCGCUCUG [Fam1A.1 aminoacylation ribozyme variant]", "self-aminoacylation", 3.1),
    ("CUACUUCAAAUAAUCGGUAUG [Fam1A.1 aminoacylation ribozyme variant]", "self-aminoacylation", 7.28),
    ("AUUAUCCGGGUCAUCGAGUGA [Fam2.1 aminoacylation ribozyme variant]", "self-aminoacylation", 45.7),
    ("ACUACCCUGGUCGUCGAGUGA [Fam2.1 aminoacylation ribozyme variant]", "self-aminoacylation", 6.66),
    ("CUACUUCAAACAAUCGUUAUG [Fam1A.1 aminoacylation ribozyme variant]", "self-aminoacylation", 0.899),
    ("AUUACUCUGGUCAGCGAGUGA [Fam2.1 aminoacylation ribozyme variant]", "self-aminoacylation", 17.6),
    ("CCUCACUUCAAGAAAUCGGUC [Fam1B.1 aminoacylation ribozyme variant]", "self-aminoacylation", 11),
]

-- ask Name the reported self-aminoacylation value associated with the sequence CCACUACAAACAAUCGGUCUG [Fam1A.1 aminoacylation ribozyme variant]
-- reply 1.38

-- ask # self-aminoacylation lookup, item AUUCACCUAGGUCAUUGUGUG [Fam2.2 aminoacylation ribozyme variant]
-- reply 0.805

-- ask Need self-aminoacylation of AUUACCCUGGUCAACAAGUGA [Fam2.1 aminoacylation ribozyme variant] , thanks.
-- reply 23.2

-- ask Item AUUCACCUAGGUGGUCGGGUG [Fam2.2 aminoacylation ribozyme variant] has what recorded self-aminoacylation?
-- reply 18.3

-- ask // lookup self-aminoacylation for AUUCAACUAGGUCUUCGGGUG [Fam2.2 aminoacylation ribozyme variant]
-- reply 29.8

-- ask Any idea what self-aminoacylation was measured for CUACUUCAAACAAUCCGUCUU [Fam1A.1 aminoacylation ribozyme variant] ?
-- reply 0.785

-- ask Which self-aminoacylation is reported for this sequence? CCACACUUCGAGCAAUCGGUG [Fam1B.1 aminoacylation ribozyme variant]
-- reply 15.2

-- ask Which self-aminoacylation is listed for CUACUUAAAACUAUCGGUCUG [Fam1A.1 aminoacylation ribozyme variant] ?
-- reply 0.83

====

system: biotinyl-Leu-oxazolone; experiment: self-aminoacylation, catalytic enhancement (BLO) (fold over background); higher = more active; k-Seq, kA / k0A0; sequences stand for … in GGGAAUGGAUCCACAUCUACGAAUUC…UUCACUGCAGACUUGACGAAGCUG
Variants at the floor of the assay were thinned out.
quantity kind: self-aminoacylation
# answer = number (no unit)

# sequence text, measured target, data value
measured = [
    ("AAGUUUGCUAAUACUCUCAAG [Fam3.1 aminoacylation ribozyme variant]", "biotinyl-Leu-oxazolone", 0.63),
]

-- ask # lookup: self-aminoacylation of AUUACCCUGGUUAUCGCGUGA [Fam2.1 aminoacylation ribozyme variant]
-- reply 11.6

-- ask self-aminoacylation lookup needed for UAGUUUGCUAAGAGUCGCAAG [Fam3.1 aminoacylation ribozyme variant] , thanks.
-- reply 0.952

-- ask Request the reported self-aminoacylation associated with CUAAUUCAAACAAUCGGGCUG [Fam1A.1 aminoacylation ribozyme variant]
-- reply 1.02

-- ask Which measured self-aminoacylation value corresponds to AUUCACUUAGGUCUUCGGGUG [Fam2.2 aminoacylation ribozyme variant] ?
-- reply 3.95
